Experiment: Evaluation of pharmacokinetics in rats
Type: in vivo
Details: rat, plasma; male SD rats, 150 mg/kg single intravenous drop infusion for 30 minutes; read-out: Volume of Distribution Vd
MEASUREMENT LABEL: Vd (L/kg)
Answers are plain numbers, in L/kg.

*Q* I have this molecule here, CN[C@@H]1[C@@H](O)[C@@H](O[C@@H]2[C@@H](O)[C@H](O[C@H]3OC(CNCCOCCONC(=N)N)=CC[C@H]3N)[C@@H](N)C[C@H]2NC(=O)[C@@H](O)CCN)OC[C@]1(C)O , and I need its recorded Vd.
*A* 1.5

* * *

Experiment: Study on pharmacokinetics in mice
Type: in vivo, CD-1 mice
Settings: mouse, plasma; CD-1 male mice, 1 mg/kg single intravenous injection; read-out: Volume of Distribution Vd
MEASUREMENT LABEL: Vd (L/kg)
Numbers only, in L/kg.

*Q* # Vd lookup, item CN[C@@H]1[C@@H](O)[C@@H](O[C@@H]2[C@@H](O)[C@H](O[C@H]3OC(CNCCOCCONC(=N)N)=CC[C@H]3N)[C@@H](N)C[C@H]2NC(=O)[C@@H](O)CCN)OC[C@]1(C)O
*A* 0.369

* * *

Please respond with reported CC50 at 43 h for every item in the list.
Assay: Toxicity test on HK-2 cells (Alma Blue)
Assay type: cell-based
Settings: human, 43 hours incubation plus 3 hours Alma Blue, read-out: CC50 of HK-2 cell
Answers are plain numbers, in µg/mL.

For each of the items listed, what is its CC50 at 43 h?
1. NCC[C@H](O)C(=O)N[C@@H]1C[C@H](N)[C@@H](O[C@H]2O[C@H](CN)[C@@H](O)[C@H](O)[C@H]2O)[C@H](O)[C@H]1O[C@H]1O[C@H](CO)[C@@H](O)[C@H](N)[C@H]1O
2. CCN[C@@H]1C[C@H](N)[C@@H](O[C@H]2OC(CN)=CC[C@H]2N)[C@H](O)[C@H]1O[C@H]1OC[C@](C)(O)[C@H](NC)[C@H]1O

*A*
8160
10600

* * *

Assay: Evaluation of pharmacokinetics in rats
Type: in vivo
Conditions: rat, plasma; male SD rats, 150 mg/kg single intravenous drop infusion for 30 minutes; read-out: Clearance Rate Cl
MEASUREMENT LABEL: clearance

*Q* Reported clearance, molecule CN[C@@H]1[C@@H](O)[C@@H](O[C@@H]2[C@@H](O)[C@H](O[C@H]3OC(CNCCOCCONC(=N)N)=CC[C@H]3N)[C@@H](N)C[C@H]2NC(=O)[C@@H](O)CCN)OC[C@]1(C)O [Compound 1] : ____
*A* 0.569 L/h/kg

* * *

Assay: Study on pharmacokinetics in mice
Assay type: in vivo, CD-1 mice
Details: mouse, plasma; CD-1 male mice, 1 mg/kg single intravenous injection; read-out: Half-Life T1/2 (converted)
MEASUREMENT LABEL: half-life (min)
Answers are plain numbers, in min.

*Q* State the recorded half-life for this entry: CN[C@@H]1[C@@H](O)[C@@H](O[C@@H]2[C@@H](O)[C@H](O[C@H]3OC(CNCCOCCONC(=N)N)=CC[C@H]3N)[C@@H](N)C[C@H]2NC(=O)[C@@H](O)CCN)OC[C@]1(C)O [Compound 1]
*A* 23.8

All values here come from patent US12338263B2.
